target: enkephalinase (Rattus norvegicus, UniProt P07861)
Sequence (P07861 whole entry): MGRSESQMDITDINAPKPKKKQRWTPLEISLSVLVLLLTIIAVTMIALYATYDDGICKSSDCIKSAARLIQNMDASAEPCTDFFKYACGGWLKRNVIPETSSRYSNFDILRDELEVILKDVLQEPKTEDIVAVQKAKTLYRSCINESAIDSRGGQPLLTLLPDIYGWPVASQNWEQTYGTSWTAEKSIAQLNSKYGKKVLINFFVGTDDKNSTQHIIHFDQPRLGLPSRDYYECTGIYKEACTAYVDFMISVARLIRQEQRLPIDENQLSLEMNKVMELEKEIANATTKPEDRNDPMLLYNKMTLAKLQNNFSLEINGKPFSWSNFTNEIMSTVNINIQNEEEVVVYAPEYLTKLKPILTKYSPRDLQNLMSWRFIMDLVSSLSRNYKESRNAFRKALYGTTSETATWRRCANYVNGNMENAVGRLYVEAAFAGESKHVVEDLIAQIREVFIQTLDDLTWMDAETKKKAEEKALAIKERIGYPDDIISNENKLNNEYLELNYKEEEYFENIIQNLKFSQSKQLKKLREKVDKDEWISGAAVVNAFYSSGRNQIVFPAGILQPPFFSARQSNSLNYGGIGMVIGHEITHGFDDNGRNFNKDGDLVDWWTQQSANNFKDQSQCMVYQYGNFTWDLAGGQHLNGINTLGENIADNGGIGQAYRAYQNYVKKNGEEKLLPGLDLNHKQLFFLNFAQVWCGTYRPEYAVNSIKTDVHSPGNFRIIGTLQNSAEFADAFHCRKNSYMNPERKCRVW
PROPERTY_NAME: IC50 (µM)

CC(C)C[C@H](NC(=O)[C@H](CC(=O)O)Cc1ccccc1)C(=O)O	4
